The entries below come with measured Clint ± SEM values attached.
systemTested: SERT (Homo sapiens)
Sequence (P31645 whole entry): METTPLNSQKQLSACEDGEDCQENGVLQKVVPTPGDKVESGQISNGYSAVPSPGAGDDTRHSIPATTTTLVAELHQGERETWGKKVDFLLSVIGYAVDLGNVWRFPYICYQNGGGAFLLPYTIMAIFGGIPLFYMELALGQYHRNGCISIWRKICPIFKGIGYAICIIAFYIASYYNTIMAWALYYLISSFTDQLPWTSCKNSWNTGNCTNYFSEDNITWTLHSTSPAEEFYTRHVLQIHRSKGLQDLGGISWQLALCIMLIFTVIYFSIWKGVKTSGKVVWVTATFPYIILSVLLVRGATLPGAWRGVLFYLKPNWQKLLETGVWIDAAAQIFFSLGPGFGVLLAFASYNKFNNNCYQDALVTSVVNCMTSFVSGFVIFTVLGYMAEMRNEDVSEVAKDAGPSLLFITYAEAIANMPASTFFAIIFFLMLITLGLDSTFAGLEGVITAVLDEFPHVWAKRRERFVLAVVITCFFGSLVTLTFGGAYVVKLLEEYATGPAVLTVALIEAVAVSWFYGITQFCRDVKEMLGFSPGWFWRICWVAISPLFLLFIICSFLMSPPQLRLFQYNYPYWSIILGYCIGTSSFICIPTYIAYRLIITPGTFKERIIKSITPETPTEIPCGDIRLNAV
runDescription: Stereoselective uptake into SERT-overexpressing HEK293 cells;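 further: uptake into HEK293 cells stably expressing human SERT over 2 min, enantiomers measured in cell lysate by chiral HPLC-MS/MS, normalized to total protein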
condition: SERT; quotient of vmax over Km

Retrieve Clint ± SEM measured for CNC[C@@H](O)c1ccc(O)cc1 [(S)-Synephrine] and print it. 0.61 mL × g Protein^−1 × min^−1

Retrieve Clint ± SEM measured for CNCC(O)c1ccc(O)c(OC)c1 (single isomer, unassigned) [Metanephrine-2, Metanephrine] and print it. 0.57 mL × g Protein^−1 × min^−1

Retrieve Clint ± SEM measured for NCC(O)c1cccc(O)c1 (single isomer, unassigned) [Norphenylephrine-1, Norphenylephrine] and print it. 1.20 mL × g Protein^−1 × min^−1

Retrieve Clint ± SEM measured for CNC[C@H](O)c1cccc(O)c1 [(R)-Phenylephrine] and print it. 17.2 mL × g Protein^−1 × min^−1

Retrieve Clint ± SEM measured for NC[C@@H](O)c1ccc(O)c(O)c1 [(S)-Norepinephrine] and print it. 2.31 ± 0.93 mL × g Protein^−1 × min^−1

Retrieve Clint ± SEM measured for COc1cc(C(O)CN)ccc1O (single isomer, unassigned) [Normetanephrine-2, Normetanephrine] and print it. 4.05 mL × g Protein^−1 × min^−1

Retrieve Clint ± SEM measured for C[C@@H]1NCCc2cc(O)c(O)cc21 [Salsolinol-2, Salsolinol] and print it. 0.71 mL × g Protein^−1 × min^−1

Retrieve Clint ± SEM measured for NC[C@H](O)c1ccc(O)cc1 [(R)-Octopamine] and print it. 4.14 mL × g Protein^−1 × min^−1

Retrieve Clint ± SEM measured for C[C@@H]1NCCc2cc(O)c(O)cc21 [Salsolinol-1, Salsolinol] and print it. 1.77 mL × g Protein^−1 × min^−1
